tested on: primary rat mixed cortical cells; assay: In vitro myelination assay (MBP positive myelin strands, fold myelin pixels above background); type: cell-based; conditions: Rattus norvegicus, 1.0 μM compound, relative to baseline of no added compound; read-out: Fold myelin pixels above background
measured metric: fold induction at 1 µM

Recorded fold induction at 1 µM (compound Cc1cc(Nc2ncn(-c3cccc(C(F)F)c3)n2)nc(NC2CCOC2)c1 (centres unmarked) ): 1 to 10

Recorded fold induction at 1 µM (compound OCc1cc(Nc2ncn(-c3ccc(F)c(F)c3)n2)nc(N2CCN(C3COC3)CC2)c1 ): 10 to 100

Recorded fold induction at 1 µM (compound Fc1cc(Nc2ncn(-c3ccc(C(F)(F)F)cc3)n2)cc(N2CCCC2)c1 ): 1 to 10

Recorded fold induction at 1 µM (compound Fc1ccc(-n2cnc(Nc3cc(C(F)(F)F)cc(N4CCN(C5COC5)CC4)n3)n2)cc1F ): 1 to 10

Recorded fold induction at 1 µM (compound Cc1c(Nc2ncn(-c3cc(F)cc(F)c3)n2)cc(N2CC(N3CCOCC3)C2)cc1OC(C)C ): 10 to 100

Recorded fold induction at 1 µM (compound FC(F)c1cc(Nc2ncn(-c3cccc(C(F)(F)F)c3)n2)nc(N2CCN(C3COC3)CC2)c1 ): 10 to 100

Recorded fold induction at 1 µM (compound Fc1ccc(-n2cnc(Nc3cc(C4CC4)nc(N4CC[C@@H](F)C4)c3)n2)cc1F ): 100 to 1000

Recorded fold induction at 1 µM (compound Cc1cc(Nc2ncn(-c3cc(F)cc(F)c3)n2)cc(C2(C)CN(C3COC3)CCO2)c1 (centres unmarked) ): 1 to 10

Recorded fold induction at 1 µM (compound COc1cc(Nc2ncn(-c3cccc(C(F)F)c3)n2)cc(N2CCN(C3COC3)CC2)c1 ): 1 to 10

Recorded fold induction at 1 µM (compound Fc1cc(F)cc(-n2cnc(Nc3cc(C4CCOC4)cc(N4CCOCC4)c3)n2)c1 (centres unmarked) ): 1000 to 10000

***
Recorded fold induction at 1 µM (compound Cc1cc(Nc2ncn(-c3cc(F)cc(F)c3)n2)cc(N2CC(N3CCCC3)C2)c1 ): 1 to 10

Recorded fold induction at 1 µM (compound Cc1cc(Nc2ncn(-c3cc(F)cc(F)c3)n2)cc(N2CCOC3(COC3)C2)c1 ): 1 to 10

Recorded fold induction at 1 µM (compound Cc1cc(Nc2ncn(-c3ccc(F)cc3)n2)cc(N2CCN(C3(C)COC3)CC2)c1 ): 1 to 10

Recorded fold induction at 1 µM (compound Cc1cc(Nc2ncn(-c3cc(F)cc(F)c3)n2)cc(N2CCN(C(=O)N3CCOCC3)CC2)c1 ): 1 to 10

Recorded fold induction at 1 µM (compound Cc1cc(Nc2ncn(-c3cc(F)cc(F)c3)n2)nc(N2CCOCC2)c1 ): 10 to 100

Recorded fold induction at 1 µM (compound Cc1cc(Nc2ncn(-c3cc(F)cc(F)c3)n2)cc(NC2CCN(C3COC3)C2)c1 (centres unmarked) ): 100 to 1000

Recorded fold induction at 1 µM (compound Cc1cc(Nc2ncn(-c3cc(F)cc(F)c3)n2)cc(N2CCCC3(COC3)C2)c1 ): ≤ 1

Recorded fold induction at 1 µM (compound Cc1cc(Nc2ncn(-c3cc(F)cc(F)c3)n2)cc(N2CC(N3CCOC4(CC4)C3)C2)c1 ): 10 to 100
